pKi average values by entry
system tested: Human CGRP receptors (consisting of CRLR and RAMP1) (Homo sapiens (Human), UniProt O60894+Q16602)
Sequence (Q16602 23-461): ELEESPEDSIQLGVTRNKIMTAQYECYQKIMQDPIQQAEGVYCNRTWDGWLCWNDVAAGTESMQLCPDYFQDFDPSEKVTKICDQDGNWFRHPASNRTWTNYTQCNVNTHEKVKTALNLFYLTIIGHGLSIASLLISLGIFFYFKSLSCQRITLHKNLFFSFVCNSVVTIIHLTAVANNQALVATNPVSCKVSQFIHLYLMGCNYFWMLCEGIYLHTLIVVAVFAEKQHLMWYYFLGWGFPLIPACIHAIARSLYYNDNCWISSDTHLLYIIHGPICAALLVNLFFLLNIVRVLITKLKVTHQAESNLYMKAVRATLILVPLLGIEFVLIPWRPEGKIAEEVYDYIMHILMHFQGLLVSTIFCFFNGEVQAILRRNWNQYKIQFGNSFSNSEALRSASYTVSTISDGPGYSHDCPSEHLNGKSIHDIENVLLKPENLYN
Sequence (O60894 27-148): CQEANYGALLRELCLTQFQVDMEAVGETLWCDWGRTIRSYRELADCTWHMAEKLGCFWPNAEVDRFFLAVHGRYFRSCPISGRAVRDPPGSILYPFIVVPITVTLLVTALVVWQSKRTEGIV
protocol description: Radioligand binding assay (3H-telcagepant displacement)
experimental conditions: Sf21 cell membranes, 0.5 nM 3H-telcagepant, Ki by Cheng-Prussoff
Write no unit; give the number alone.

- molecule: "Cc1cc(C[C@@H](NC(=O)N2CCC(c3cc4ccccc4[nH]c3=O)CC2)C(=O)N2CCC(N3CCC(c4nncn4C)CC3)CC2)cc2cn[nH]c12 [Example 4]"
  pKi average: 10.0
- molecule: "Cc1cc(C[C@@H](NC(=O)N2CCC(c3cc4ccccc4[nH]c3=O)CC2)C(=O)N2CCC(N3CCC(c4nnc(C(=O)O)[nH]4)CC3)CC2)cc2cn[nH]c12 [Example 9]"
  pKi average: 10.3
- molecule: "Cc1nc[nH]c1C1CCN(C2CCN(C(=O)[C@@H](Cc3cc(C)c4[nH]ncc4c3)NC(=O)N3CCC(c4cc5ccccc5[nH]c4=O)CC3)CC2)CC1 [Example 2]"
  pKi average: 10.1
- molecule: "Cc1cc(C[C@@H](NC(=O)N2CCC(c3cc4ccc(F)cc4[nH]c3=O)CC2)C(=O)N2CCC(N3CCC(c4nncn4C)CC3)CC2)cc2cn[nH]c12 [Example 5]"
  pKi average: 9.9
- molecule: "CCCn1ccnc1C1CCN(C2CCN(C(=O)[C@@H](Cc3cc(C)c4[nH]ncc4c3)NC(=O)N3CCC(c4cc5ccccc5[nH]c4=O)CC3)CC2)CC1 [Example 3]"
  pKi average: 9.8

Please turn your attention to the following entry.
### Prompt # query: pKi average of entry Cc1cc(C[C@@H](NC(=O)N2CCC(c3cc4ccccc4[nH]c3=O)CC2)C(=O)N2CCC(N3CCC(c4nnc[nH]4)CC3)CC2)cc2cn[nH]c12 [Example 7]
### Response 9.8

----------
Quick list: log10(solubility thermodynamic at 24 h) per entry.
protocol description: Thermodynamic solubility profiling
Format: physicochemical
experimental conditions: aqueous buffer, thermodynamic from solid; PBS buffer pH 7.4, 24 h at rt; read-out: Thermodynamic solubility pH 7.4
In plain terms, each number is the log10 of measured solubility thermodynamic at 24 h in µM.

Guide cases for log10(solubility thermodynamic at 24 h), answers given:
- compound: "Cc1nnc(C2CCN(C3CCN(C(=O)[C@@H](Cc4cc(C)c5[nH]ncc5c4)NC(=O)N4CCC(c5cc6ccccc6[nH]c5=O)CC4)CC3)CC2)[nH]1"
  recorded endpoint: "log10(solubility thermodynamic at 24 h)"
  quantitative result: 2.56
- compound: "CCCn1ccnc1C1CCN(C2CCN(C(=O)[C@@H](Cc3cc(C)c4[nH]ncc4c3)NC(=O)N3CCC(c4cc5ccccc5[nH]c4=O)CC3)CC2)CC1"
  recorded endpoint: "log10(solubility thermodynamic at 24 h)"
  quantitative result: 0.30
- compound: "Cc1nc[nH]c1C1CCN(C2CCN(C(=O)[C@@H](Cc3cc(C)c4[nH]ncc4c3)NC(=O)N3CCC(c4cc5ccccc5[nH]c4=O)CC3)CC2)CC1"
  recorded endpoint: "log10(solubility thermodynamic at 24 h)"
  quantitative result: 1.26

### Prompt Which log10(solubility thermodynamic at 24 h) is listed for Cc1cc(C[C@@H](NC(=O)N2CCC(c3cc4ccccc4[nH]c3=O)CC2)C(=O)N2CCC(N3CCC(c4nnc[nH]4)CC3)CC2)cc2cn[nH]c12 ?
### Response 2.53

### Prompt What do you get for Cc1cc(C[C@@H](NC(=O)N2CCC(c3cc4ccccc4[nH]c3=O)CC2)C(=O)N2CCC(N3CCC(c4nncn4C)CC3)CC2)cc2cn[nH]c12 ?
### Response 1.51

### Prompt What about Cc1cc(C[C@@H](NC(=O)N2CCC(c3cc4ccc(F)cc4[nH]c3=O)CC2)C(=O)N2CCC(N3CCC(c4nncn4C)CC3)CC2)cc2cn[nH]c12 ?
### Response 2.38

### Prompt Again, but for NCCCC[C@H](NC(=O)[C@@H](Cc1cc(Br)c(O)c(Br)c1)NC(=O)N1CCC(N2Cc3ccccc3NC2=O)CC1)C(=O)N1CCN(c2ccncc2)CC1 [olcegepant, reference compound]
### Response 2.63

----------
system tested: human CGRP receptor (Homo sapiens (Human), UniProt O60894+Q16602)
Sequence (Q16602 23-461): as the sequence (Q16602 23-461) above
Sequence (O60894 27-148): as the sequence (O60894 27-148) above
protocol description: cAMP functional assay (HTRF) in SK-N-MC cells
Format: cell-based
experimental conditions: read-out: pKb average (converted)
Listing of entries alongside the reported Kb.
The figure you give is taken to be in nM; do not add the unit.

- compound: "CCCn1ccnc1C1CCN(C2CCN(C(=O)[C@@H](Cc3cc(C)c4[nH]ncc4c3)NC(=O)N3CCC(c4cc5ccccc5[nH]c4=O)CC3)CC2)CC1 [Example 3]"
  unit abbrev: "nM"
  quantitative result: 0.398

### Prompt For Cc1nnc(C2CCN(C3CCN(C(=O)[C@@H](Cc4cc(C)c5[nH]ncc5c4)NC(=O)N4CCC(c5cc6ccccc6[nH]c5=O)CC4)CC3)CC2)[nH]1 [Example 8] , what is its reported Kb?
### Response 0.316

### Prompt Further, for CCOC(=O)c1nnc(C2CCN(C3CCN(C(=O)[C@@H](Cc4cc(C)c5[nH]ncc5c4)NC(=O)N4CCC(c5cc6ccccc6[nH]c5=O)CC4)CC3)CC2)[nH]1 [Example 6] ?
### Response 0.2

----------
protocol description: Pharmacokinetic profiling in rat
Assay type: in vivo, male Sprague Dawley rats
experimental conditions: male, Sprague Dawley, plasma, inhaled or intranasal
recorded endpoint: bioavailability (%)
Give a bare numeral; the unit % is implied.

Reference set (2 entries):
- molecule: "NCCCC[C@H](NC(=O)[C@@H](Cc1cc(Br)c(O)c(Br)c1)NC(=O)N1CCC(N2Cc3ccccc3NC2=O)CC1)C(=O)N1CCN(c2ccncc2)CC1 [olcegepant, reference compound]"
  recorded endpoint: "bioavailability"
  quantitative result: 8
- molecule: "Cc1cc(C[C@@H](NC(=O)N2CCC(c3cc4ccccc4[nH]c3=O)CC2)C(=O)N2CCC(N3CCC(c4nncn4C)CC3)CC2)cc2cn[nH]c12"
  recorded endpoint: "bioavailability"
  quantitative result: 27

Now for the molecule whose bioavailability we want.
### Prompt I'd like to know its bioavailability. The molecule in question is Cc1nc[nH]c1C1CCN(C2CCN(C(=O)[C@@H](Cc3cc(C)c4[nH]ncc4c3)NC(=O)N3CCC(c4cc5ccccc5[nH]c4=O)CC3)CC2)CC1
### Response 25

----------
In this section we review reported pKi average values for a set of compounds.
system tested: Human CGRP receptors (consisting of CRLR and RAMP1) (Homo sapiens (Human), UniProt O60894+Q16602)
protocol description: Radioligand binding assay (3H-telcagepant displacement)
experimental conditions: Sf21 cell membranes, 0.5 nM 3H-telcagepant, Ki by Cheng-Prussoff
Field format: numeric only.

Use these answered entries as a reference point.
- smiles representation: "Cc1nnc(C2CCN(C3CCN(C(=O)[C@@H](Cc4cc(C)c5[nH]ncc5c4)NC(=O)N4CCC(c5cc6ccccc6[nH]c5=O)CC4)CC3)CC2)[nH]1"
  pKi average: 10.0
- smiles representation: "CCOC(=O)c1nnc(C2CCN(C3CCN(C(=O)[C@@H](Cc4cc(C)c5[nH]ncc5c4)NC(=O)N4CCC(c5cc6ccccc6[nH]c5=O)CC4)CC3)CC2)[nH]1"
  pKi average: 10.2

### Prompt Which value of pKi average has been reported for Cc1cc(C[C@@H](NC(=O)N2CCC(c3cc4ccccc4[nH]c3=O)CC2)C(=O)N2CCC(N3CCC(c4ncc[nH]4)CC3)CC2)cc2cn[nH]c12 in the records?
### Response 10.3
